experimentalTarget: DYRK1B (Homo sapiens, UniProt Q9Y463)
Sequence (Q9Y463 whole entry): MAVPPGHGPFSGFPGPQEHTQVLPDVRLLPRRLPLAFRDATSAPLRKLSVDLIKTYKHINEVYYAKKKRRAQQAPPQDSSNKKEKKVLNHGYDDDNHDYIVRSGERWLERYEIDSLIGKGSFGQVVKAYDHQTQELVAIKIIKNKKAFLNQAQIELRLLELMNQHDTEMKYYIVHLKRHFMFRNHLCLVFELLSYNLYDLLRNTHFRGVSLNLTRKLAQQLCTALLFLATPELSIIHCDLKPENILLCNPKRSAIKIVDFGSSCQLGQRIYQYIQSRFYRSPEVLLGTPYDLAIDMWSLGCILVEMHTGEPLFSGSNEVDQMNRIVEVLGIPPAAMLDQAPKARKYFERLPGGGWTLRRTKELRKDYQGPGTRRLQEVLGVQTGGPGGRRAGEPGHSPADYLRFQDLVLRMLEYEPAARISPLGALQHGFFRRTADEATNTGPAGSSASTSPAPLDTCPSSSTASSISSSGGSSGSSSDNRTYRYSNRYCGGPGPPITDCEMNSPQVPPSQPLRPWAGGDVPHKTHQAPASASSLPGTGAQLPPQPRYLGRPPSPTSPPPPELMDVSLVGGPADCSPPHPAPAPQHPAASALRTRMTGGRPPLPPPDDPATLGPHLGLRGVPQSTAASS
measurementType: pIC50
Kindly note that pIC50 refers to -log10 of the concentration in mol/L and answer with the value alone.

Look at this compound and give its reported pIC50. "CCN1CCN(C(=O)c2ccc(Nc3ncc(F)c(-c4ccc5nc(N(C)C)sc5c4)n3)nc2)CC1"
6.27

----------
assaySummary: Pharmacokinetic profiles
Assay type: in vivo
experimentalSetup: Sprague-Dawley, rat, serum, iv, 1 mg/kg, SD rats, IV 1 mg/kg, 0.25 h; read-out: Con. (individual rats NO.1-3)
measurementType: concentration at 0.25 h
Please don't drop the unit; write it after the number.

// returns reported concentration at 0.25 h for input "CCN1CCN(C(=O)c2ccc(Nc3ncc(F)c(-c4ccc5nc(N(C)C)sc5c4)n3)nc2)CC1"
560 ng/mL
